targetOrSystem: Tyrosyl-tRNA synthetase, putative (Trypanosoma cruzi (strain CL Brener)) (UniProt Q4DSP6)
Sequence (Q4DSP6 as listed by the source): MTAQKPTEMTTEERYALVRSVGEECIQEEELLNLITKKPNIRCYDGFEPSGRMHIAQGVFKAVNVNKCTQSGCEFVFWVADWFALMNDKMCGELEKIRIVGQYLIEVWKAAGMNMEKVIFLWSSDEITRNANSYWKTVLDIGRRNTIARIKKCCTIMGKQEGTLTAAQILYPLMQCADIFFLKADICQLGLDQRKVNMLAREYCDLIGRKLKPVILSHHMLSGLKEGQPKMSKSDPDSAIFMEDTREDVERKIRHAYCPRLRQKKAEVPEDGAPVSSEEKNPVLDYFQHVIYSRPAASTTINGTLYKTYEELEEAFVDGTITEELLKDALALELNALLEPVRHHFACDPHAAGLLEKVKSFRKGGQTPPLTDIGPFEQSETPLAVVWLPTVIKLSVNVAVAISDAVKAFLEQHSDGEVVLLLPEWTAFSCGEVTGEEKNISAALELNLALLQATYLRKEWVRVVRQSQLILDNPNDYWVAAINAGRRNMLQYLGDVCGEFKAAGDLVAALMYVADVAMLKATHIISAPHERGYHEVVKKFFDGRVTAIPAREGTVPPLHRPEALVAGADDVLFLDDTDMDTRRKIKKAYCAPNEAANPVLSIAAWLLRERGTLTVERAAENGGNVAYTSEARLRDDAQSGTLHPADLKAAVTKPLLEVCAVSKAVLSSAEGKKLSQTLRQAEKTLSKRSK
assayName: Trypanosoma cruzi tyrosyl tRNA synthetase (TcYRS) SOP
Assay type: functional
Set-up: scale not given: direction of the effect not stated beside the values
protocolConditions: 30 µM
measuredQuantity: Percent Effect (%)
Give bare numbers, in %.

Guide cases for Percent Effect, answers given:
compound	unitInfo	Percent Effect
Cc1cnn(CC2CN(CC(=O)N3CCc4ccccc43)CCO2)c1 (stereo unspecified)	%	-5.13
CCn1nc(C(=O)N2CCCC(n3cncn3)C2)ccc1=O (stereo unspecified)	%	11.8
CC(=O)N1CCOC2(CCN(C(=O)c3cnoc3C)CC2)C1	%	5.13
COc1ccnc(C(=O)N2CCCC(c3noc(C)n3)C2)c1 (stereo unspecified)	%	-1.27

State the recorded Percent Effect for every item in the following list.
1. CCN(CC)C(=O)c1nnn(Cc2ccccc2)c1OC
2. O=C1CC(c2cccnc2)C2(CCN(C(=O)c3ccncc3)CC2)N1 (stereo unspecified)

A)
1: 5.13; 2: 15.4

###

targetOrSystem: Protein translocase subunit SecA (Escherichia coli (strain K12)) (UniProt P10408)
Sequence (P10408 whole entry): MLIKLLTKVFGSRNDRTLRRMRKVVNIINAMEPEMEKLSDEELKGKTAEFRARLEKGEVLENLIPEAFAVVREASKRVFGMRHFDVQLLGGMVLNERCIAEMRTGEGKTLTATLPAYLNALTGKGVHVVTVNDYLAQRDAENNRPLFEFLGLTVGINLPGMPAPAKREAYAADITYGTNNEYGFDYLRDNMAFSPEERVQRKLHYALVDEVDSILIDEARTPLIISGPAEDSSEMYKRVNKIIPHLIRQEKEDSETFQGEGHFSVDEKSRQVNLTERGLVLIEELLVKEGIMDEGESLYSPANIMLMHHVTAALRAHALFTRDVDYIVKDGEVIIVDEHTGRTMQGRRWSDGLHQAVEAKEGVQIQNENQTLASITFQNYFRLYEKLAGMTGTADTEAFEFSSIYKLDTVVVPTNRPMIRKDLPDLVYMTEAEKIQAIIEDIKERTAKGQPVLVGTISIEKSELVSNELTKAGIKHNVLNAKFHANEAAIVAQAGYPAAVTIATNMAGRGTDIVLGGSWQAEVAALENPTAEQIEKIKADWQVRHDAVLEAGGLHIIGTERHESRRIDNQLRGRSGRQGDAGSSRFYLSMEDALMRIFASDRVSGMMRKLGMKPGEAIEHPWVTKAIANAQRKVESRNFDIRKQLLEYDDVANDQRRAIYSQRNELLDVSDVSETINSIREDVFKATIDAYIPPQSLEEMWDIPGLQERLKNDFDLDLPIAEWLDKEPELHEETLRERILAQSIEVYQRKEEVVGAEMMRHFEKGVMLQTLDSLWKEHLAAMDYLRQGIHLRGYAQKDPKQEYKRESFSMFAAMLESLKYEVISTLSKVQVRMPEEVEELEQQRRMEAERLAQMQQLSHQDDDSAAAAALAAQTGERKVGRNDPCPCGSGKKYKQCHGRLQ
assayName: Assay to Identify E. coli SecA ATPase Inhibitors
Type: functional
Design: scale not given: direction of the effect not stated beside the values
protocolConditions: 30 µM
Results with a measured potency or affinity are listed apart.
What Percent Effect was measured for each of the following?
Numbers only, in %.

Guide cases for Percent Effect, answers given:
compound	unitInfo	reportedValue
Cc1ccccc1-c1cc(C(=O)NCCN2CCCS2(=O)=O)[nH]n1	%	-1.9
CS(=O)(=O)N1CCc2nc(NC(=O)Nc3c(F)cccc3F)sc2C1	%	-4.94
CCCN(CC)C(=O)c1cc2c(c3ccccc3n2C)n1C(=O)N(C)C	%	-6.54
Cc1ccc(C(=O)NS(=O)(=O)c2cccc3cnccc23)c(=O)[nH]1	%	-5.08
CCCn1ccc(C(=O)N2CCOC(c3nc(-c4cccs4)no3)C2)n1 (stereo not drawn)	%	-2.75
COc1cccc(F)c1C(=O)N1C[C@@H](CN(C)CCO)[C@@H](CO)C1	%	-8.11
CCCn1c(C)cc(C(=O)CN2C(=O)c3ccccc3CS2(=O)=O)c1C	%	2.47

Lab note: next compound to report on.
Notebook: Cn1cc(C(=O)N2CCCC(Cc3nccs3)C2)cn1 (stereo not drawn) , Percent Effect read as -2.98

###

What Percent Effect was measured for each of the following?
targetOrSystem: Protein translocase subunit SecA (Escherichia coli (strain K12)) (UniProt P10408)
assayName: Assay to Identify E. coli SecA ATPase Inhibitors
Format: functional
Set-up: scale not given: direction of the effect not stated beside the values
protocolConditions: 30 µM
Results with a measured potency or affinity are listed apart.

Guide cases for Percent Effect, answers given:
compound	reportedValue
COc1ccc2c(O)c(NC(=O)NCC3CC3)cnc2c1	1.05%
CC(C)CCN1CCN(Cc2nc(C3CC3)no2)CC1	-7.83%
CCn1ccnc1CN1CCCC(CO)(Cc2cccc(Cl)c2)C1 (stereo not given)	-5.53%
CN(C)C(=O)[C@@H]1CCO[C@@H]2CCN(Cc3ccc4c(c3)OCO4)C[C@@H]21	-3.73%
COCC1CN(S(C)(=O)=O)Cc2ncn(CC3CC3)c21 (stereo not given)	-4.92%

State the recorded Percent Effect for every item in the following list.
1. COc1cccc(CNC(CN2CCN(C)CC2)c2ccccc2)c1 (stereo not given)
2. COc1cccc(CNC(=O)N2CCN(Cc3cc(C)on3)CC2)c1
3. COc1ccc(CN2CCN(C(C)c3nc(C4CC4)no3)CC2)cc1 (stereo not given)
4. N#Cc1cc(NC(=O)C2CC=CC2)ccc1N1CCC(O)CC1
5. COc1ccc(-n2ncc(C(=O)NCC3COC(C)(C)O3)c2N)cc1 (stereo not given)
6. CCC(C)NC(=O)N1CCCn2cnc(CO)c2C1 (stereo not given)
7. Cn1cc(CN2CCc3c(nc(-c4ccccn4)[nH]c3=O)C2)cn1
8. c1csc(-c2nc(CNC3CCc4ncnn4C3)cs2)c1 (stereo not given)

A)
1. -5.66%
2. -1.41%
3. -1.5%
4. -3.63%
5. 97.8%
6. -0.731%
7. -4.53%
8. -3.1%

State the recorded Percent Effect for every item in the following list.
1. Cc1cccc(CCC(=O)N2CCOCC2c2c(C)n[nH]c2C)c1 (stereo not given)
2. CCN1CCC(NC(=O)CN2CCc3c(ncn3C)C2)CC1
3. O=S(=O)(C1CC1)N1C[C@H]2CCC[C@@]2(COc2ccccn2)C1
4. CC(C)OCCCNC(=O)CS(=O)(=O)Cc1ccc(Cl)c(Cl)c1
5. CC(NC(=O)N1CCN(c2ccc(Cl)cc2)CC1)C(=O)N1CCSCC1 (stereo not given)
6. Cc1cc(C)n(Cc2cccc(C(=O)NCCN3CCOCC3)c2)n1
7. CN(C)C(C(=O)N1CCCC1)c1ccccc1F (stereo not given)

A)
1. -3.35%
2. -4.55%
3. -0.747%
4. -6.75%
5. -6.05%
6. 6.23%
7. -2.84%

State the recorded Percent Effect for every item in the following list.
1. CCc1nccn1C1CCCN(C(=O)c2cnn(C)c2C2CC2)C1 (stereo not given)
2. CC(C)Cc1nc(OCC(=O)O)c(C#N)c2c1CCC2
3. COc1cccc(C2CC(=O)Nc3nc(N)sc32)c1OC (stereo not given)

A)
-5.61%
1.44%
70.6%

State the recorded Percent Effect for every item in the following list.
1. Cc1nc(C)n(CC2CCCN(CCOc3cccc(C#N)c3)C2)n1 (stereo not given)
2. Cn1cnnc1S(=O)(=O)C1CCN(S(=O)(=O)c2ccc(F)c(Cl)c2)CC1
3. Cc1cc(C)n(-c2cncc(N3CCN(C(=O)C(C)(C)C)CC3)n2)n1
4. O=C(c1cnc(COc2ccccc2)nc1O)N1CCOCC1
5. Cc1cccc(NC2CCN(C(=O)Nc3cc(C)on3)CC2)n1
6. O=C(c1cccn1Cc1cccs1)N1CCN(C(=O)C2CC2)CC1

A)
1. 1.74%
2. -0.452%
3. -5.22%
4. -3.01%
5. -3.9%
6. -6.16%
